Property: growth inhibition; scope: individual compounds
# ASSAY_DETAILS: NCI Yeast Anticancer Drug Screen. Data for the bub3 strain (AID 167)
# MEASUREMENT_SETUP: S. cerevisiae bub3 mutant strain, at 50.0 µM, stronger effect = higher value
The panel holds about 79,000 compounds, 15% with a hit somewhere; the sample as a whole holds those more often.
Provide the reading as a plain figure in %.

COC(=O)/C=C/C(=O)NC(N)=O: -17.2

Exam item: What value of growth inhibition has been recorded for this entry: C=CCNC(=O)c1ccc(OC)cc1
Marked response: -4.5

Exam item: So what does the record say about growth inhibition for COc1cc(/C=N\Nc2ccccc2)ccc1OC(=O)c1ccccc1 ?
Marked response: 11.8

Exam item: Can you share its growth inhibition? I mean this compound: CN(C)CCN(C)CC(C)(C)C(=O)/C=C/c1ccc(Cl)cc1
Marked response: 19.7

Exam item: Give its growth inhibition value. Item: CC(C)=NNC(N)=S
Marked response: 2.35

Exam item: I would be grateful if you could share the reported growth inhibition for COC(=O)Nc1nc2ccc(C(=O)c3cccs3)cc2[nH]1 .
Marked response: 24.4

Exam item: # input compound: Cc1ccncc1C(N)=O ; wanted: its growth inhibition
Marked response: -11

Exam item: Report growth inhibition for Cc1ccc(CCCC(=O)O)c(C)c1 please.
Marked response: 28.9

Exam item: Need growth inhibition, item O=C(Nc1cccc(NC(=O)Nc2cc(C(F)(F)F)ccc2Cl)c1)Nc1cc(C(F)(F)F)ccc1Cl
Marked response: 14.9

Exam item: I have this compound here, CC(C)C1CCCCC1O (configuration not stated) , and I need its recorded growth inhibition.
Marked response: -1.4

Exam item: Need growth inhibition, item CC(O)COc1ccc(-c2ccccc2)cc1 (configuration not stated)
Marked response: 28.1

Exam item: Give the measured growth inhibition of CCN(CC)CCCC(C)Nc1ccnc(/C=C/c2ccc(Cl)cc2)c1 (configuration not stated) .
Marked response: -39.5

Exam item: Could you share which growth inhibition value was measured for Cc1cccc([N+](=O)[O-])c1Cl ?
Marked response: -30.8

Origin of measurements: PubChem BioAssay (NCI)
